SYSTEM TESTED: human TLR7 (Homo sapiens, UniProt Q9NYK1)
Sequence (Q9NYK1 27-1049): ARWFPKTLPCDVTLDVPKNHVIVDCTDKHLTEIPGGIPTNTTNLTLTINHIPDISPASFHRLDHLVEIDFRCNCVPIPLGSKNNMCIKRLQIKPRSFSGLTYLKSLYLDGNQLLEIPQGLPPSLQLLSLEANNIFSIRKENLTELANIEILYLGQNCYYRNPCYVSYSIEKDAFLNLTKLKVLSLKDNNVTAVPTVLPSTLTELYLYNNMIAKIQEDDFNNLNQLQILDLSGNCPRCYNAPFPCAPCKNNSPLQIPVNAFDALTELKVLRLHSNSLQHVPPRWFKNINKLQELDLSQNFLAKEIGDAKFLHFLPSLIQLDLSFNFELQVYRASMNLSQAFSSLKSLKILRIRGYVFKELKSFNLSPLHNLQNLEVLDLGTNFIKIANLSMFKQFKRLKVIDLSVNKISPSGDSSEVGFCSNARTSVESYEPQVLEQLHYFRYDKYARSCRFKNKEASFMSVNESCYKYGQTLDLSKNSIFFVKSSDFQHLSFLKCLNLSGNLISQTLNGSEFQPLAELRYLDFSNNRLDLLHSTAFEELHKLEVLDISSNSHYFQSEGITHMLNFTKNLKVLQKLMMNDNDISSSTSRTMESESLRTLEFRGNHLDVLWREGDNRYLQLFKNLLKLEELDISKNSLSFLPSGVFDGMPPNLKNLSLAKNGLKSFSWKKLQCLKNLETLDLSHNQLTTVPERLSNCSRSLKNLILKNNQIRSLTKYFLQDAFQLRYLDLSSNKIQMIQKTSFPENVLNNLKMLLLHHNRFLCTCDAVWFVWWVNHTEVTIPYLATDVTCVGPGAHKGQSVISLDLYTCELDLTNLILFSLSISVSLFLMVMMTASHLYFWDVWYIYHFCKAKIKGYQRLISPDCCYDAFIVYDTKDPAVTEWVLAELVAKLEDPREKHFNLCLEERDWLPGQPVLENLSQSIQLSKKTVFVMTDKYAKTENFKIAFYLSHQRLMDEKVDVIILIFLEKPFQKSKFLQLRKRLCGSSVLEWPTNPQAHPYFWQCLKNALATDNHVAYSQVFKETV
PROTOCOL DETAILS: TLR7 inhibition reporter assay (HEK-Blue cells, SEAP reporter, gardiquimod stimulation)
DETAILS: HEK-Blue cells overexpressing human TLR7, SEAP reporter, gardiquimod 7.5 μM

{"columns": ["COMPOUND", "IC50"],
 "data": [
  ["CCc1c(-c2ccnc3[nH]ncc23)[nH]c2ccc(C3CCNCC3F)cc12 (centres unmarked) [Example 177]", "< 100 nM"],
  ["Cc1c(-c2[nH]c3ccc(C4CCN(CCS(C)(=O)=O)CC4)cc3c2C(C)C)cn2nnnc2c1C", "< 100 nM"],
  ["CNC(=O)CN1CCC(c2ccc3[nH]c(-c4cc(C)c5nc(C)cn5c4)c(C(C)C)c3c2)CC1", "< 100 nM"],
  ["CC(C)c1c(-c2ccc3ncsc3c2)[nH]c2ccc(C3CCNCC3)cc12", "< 100 nM"],
  ["CC(C)c1c(-c2ccc3c(c2)oc(=O)n3C)[nH]c2ccc(C3CCNCC3)cc12", "100 to 1000 nM"],
  ["CC1CC(N2CCC(c3ccc4[nH]c(-c5ccnc6[nH]ncc56)c(C(C)C)c4c3)CC2)CCN1 (centres unmarked)", "< 100 nM"],
  ["Cc1cnc2[nH]ncc2c1-c1[nH]c2ccc(C3CCNCC3)cc2c1C(C)C", "< 100 nM"],
  ["CC(C)c1c(-c2ccnc3c2ncn3C)[nH]c2ccc(C3CCNCC3)cc12 [Example 44]", "1000 to 50000 nM"],
  ["CC(C)c1c(-c2cccn3ncnc23)[nH]c2ccc(C3CCNCC3)cc12", "< 100 nM"],
  ["COc1cc(-c2[nH]c3ccc(C4CCN(C5COC5)CC4)cc3c2C(C)C)nn2ncnc12", "< 100 nM"],
  ["CCc1c(-c2ccnc3[nH]ncc23)[nH]c2ccc(C3CCN(Cc4cnn(C)c4)CC3)cc12", "100 to 1000 nM"],
  ["CC(C)c1c(-c2ccnc3[nH]ncc23)[nH]c2ccc(C3CCN(Cc4ccccc4OCCCN(C)C)CC3)cc12", "100 to 1000 nM"],
  ["CCN(CC)C(=O)C1CCCN(CC(=O)N2CCC(c3ccc4[nH]c(-c5ccnc6[nH]ccc56)c(C(C)C)c4c3)CC2)C1 (centres unmarked) [Example 569]", "< 100 nM"],
  ["Cc1cc2[nH]c(-c3ccnc4[nH]ncc34)c(C(C)C)c2cc1C1CCN(C2CCN(C(C)C)CC2)CC1", "< 100 nM"],
  ["CC(C)c1c(-c2cnc3cnccn23)[nH]c2ccc(C3CCN(CC(=O)N(C)C)CC3)cc12", "> 3130 nM"],
  ["CCc1c(-c2ccnc3c(N)noc23)[nH]c2ccc(C3CCNCC3)cc12", "1000 to 50000 nM"],
  ["CCc1c(-c2cccc3[nH]ncc23)[nH]c2ccc(C3CCN(CC(=O)NC)CC3)cc12", "1000 to 50000 nM"],
  ["Cc1nc2c(-c3[nH]c4ccc(C5CCNCC5)cc4c3C)ccnc2[nH]1", "1000 to 50000 nM"],
  ["CC(C)c1c(-c2ccc3nccn3c2)[nH]c2ccc(C3CCN(Cc4c[nH]cn4)CC3)cc12", "< 100 nM"],
  ["Cc1cc2ncnn2nc1-c1[nH]c2ccc(C3CCN(C(=O)CN(C)C)CC3)cc2c1C(C)C", "< 100 nM"],
  ["CNCCN1CCC(c2ccc3[nH]c(-c4ccc5[nH]ccc5c4)c(C)c3c2)CC1", "1000 to 50000 nM"],
  ["CCc1c(-c2cc3ccccc3o2)[nH]c2ccc(C3CCNCC3)cc12", "1000 to 50000 nM"],
  ["CC(C)c1c(-c2ccnc3[nH]ncc23)[nH]c2ccc(C3CCN(Cc4c[nH]cn4)CC3)cc12", "< 100 nM"],
  ["COc1c(C)c(-c2[nH]c3ccc(C4CCNCC4)cc3c2C(C)C)nn2ncnc12", "< 100 nM"],
  ["CC(C)c1c(-c2cn3cnnc3c(O)n2)[nH]c2ccc(C3CCNCC3)cc12", "1000 to 50000 nM"],
  ["Cc1cc(-c2[nH]c3ccc(C4CCNCC4)cc3c2C(C)C)cn2nnnc12", "< 100 nM"],
  ["Cc1c(-c2[nH]c3ccc(C4CCN(CC(=O)N(C)C)CC4)cc3c2C(C)C)cn2ccnc2c1C", "< 100 nM"],
  ["CC(C)c1c(-c2ncnn3cccc23)[nH]c2ccc(C3CCN(CC(=O)N(C)C)CC3)cc12", "100 to 1000 nM"],
  ["COc1cc(-c2[nH]c3ccc(C4CCNCC4)cc3c2C(C)C)cc2nccn12", "100 to 1000 nM"],
  ["CC(C)c1c(-c2ccnc3[nH]ncc23)[nH]c2ccc(C3CCNC(=O)C3)cc12 (centres unmarked)", "100 to 1000 nM"],
  ["Cc1cc2nnnn2cc1-c1[nH]c2ccc(C3CCN(C4CCS(=O)(=O)CC4)CC3)cc2c1C(C)C", "< 100 nM"],
  ["Cc1cc(-c2[nH]c3ccc(C4CCN(C(=O)CN(C)C)CC4)cc3c2C(C)C)cc2cncn12", "< 100 nM"]
]}
